Data origin: patent US20080227823A1

pKd values by entry
Target: human α1G T-type channels (Homo sapiens)
Construct: expressed in transfected cells; host or cells: HEK 293
Sequence (O43497 whole entry): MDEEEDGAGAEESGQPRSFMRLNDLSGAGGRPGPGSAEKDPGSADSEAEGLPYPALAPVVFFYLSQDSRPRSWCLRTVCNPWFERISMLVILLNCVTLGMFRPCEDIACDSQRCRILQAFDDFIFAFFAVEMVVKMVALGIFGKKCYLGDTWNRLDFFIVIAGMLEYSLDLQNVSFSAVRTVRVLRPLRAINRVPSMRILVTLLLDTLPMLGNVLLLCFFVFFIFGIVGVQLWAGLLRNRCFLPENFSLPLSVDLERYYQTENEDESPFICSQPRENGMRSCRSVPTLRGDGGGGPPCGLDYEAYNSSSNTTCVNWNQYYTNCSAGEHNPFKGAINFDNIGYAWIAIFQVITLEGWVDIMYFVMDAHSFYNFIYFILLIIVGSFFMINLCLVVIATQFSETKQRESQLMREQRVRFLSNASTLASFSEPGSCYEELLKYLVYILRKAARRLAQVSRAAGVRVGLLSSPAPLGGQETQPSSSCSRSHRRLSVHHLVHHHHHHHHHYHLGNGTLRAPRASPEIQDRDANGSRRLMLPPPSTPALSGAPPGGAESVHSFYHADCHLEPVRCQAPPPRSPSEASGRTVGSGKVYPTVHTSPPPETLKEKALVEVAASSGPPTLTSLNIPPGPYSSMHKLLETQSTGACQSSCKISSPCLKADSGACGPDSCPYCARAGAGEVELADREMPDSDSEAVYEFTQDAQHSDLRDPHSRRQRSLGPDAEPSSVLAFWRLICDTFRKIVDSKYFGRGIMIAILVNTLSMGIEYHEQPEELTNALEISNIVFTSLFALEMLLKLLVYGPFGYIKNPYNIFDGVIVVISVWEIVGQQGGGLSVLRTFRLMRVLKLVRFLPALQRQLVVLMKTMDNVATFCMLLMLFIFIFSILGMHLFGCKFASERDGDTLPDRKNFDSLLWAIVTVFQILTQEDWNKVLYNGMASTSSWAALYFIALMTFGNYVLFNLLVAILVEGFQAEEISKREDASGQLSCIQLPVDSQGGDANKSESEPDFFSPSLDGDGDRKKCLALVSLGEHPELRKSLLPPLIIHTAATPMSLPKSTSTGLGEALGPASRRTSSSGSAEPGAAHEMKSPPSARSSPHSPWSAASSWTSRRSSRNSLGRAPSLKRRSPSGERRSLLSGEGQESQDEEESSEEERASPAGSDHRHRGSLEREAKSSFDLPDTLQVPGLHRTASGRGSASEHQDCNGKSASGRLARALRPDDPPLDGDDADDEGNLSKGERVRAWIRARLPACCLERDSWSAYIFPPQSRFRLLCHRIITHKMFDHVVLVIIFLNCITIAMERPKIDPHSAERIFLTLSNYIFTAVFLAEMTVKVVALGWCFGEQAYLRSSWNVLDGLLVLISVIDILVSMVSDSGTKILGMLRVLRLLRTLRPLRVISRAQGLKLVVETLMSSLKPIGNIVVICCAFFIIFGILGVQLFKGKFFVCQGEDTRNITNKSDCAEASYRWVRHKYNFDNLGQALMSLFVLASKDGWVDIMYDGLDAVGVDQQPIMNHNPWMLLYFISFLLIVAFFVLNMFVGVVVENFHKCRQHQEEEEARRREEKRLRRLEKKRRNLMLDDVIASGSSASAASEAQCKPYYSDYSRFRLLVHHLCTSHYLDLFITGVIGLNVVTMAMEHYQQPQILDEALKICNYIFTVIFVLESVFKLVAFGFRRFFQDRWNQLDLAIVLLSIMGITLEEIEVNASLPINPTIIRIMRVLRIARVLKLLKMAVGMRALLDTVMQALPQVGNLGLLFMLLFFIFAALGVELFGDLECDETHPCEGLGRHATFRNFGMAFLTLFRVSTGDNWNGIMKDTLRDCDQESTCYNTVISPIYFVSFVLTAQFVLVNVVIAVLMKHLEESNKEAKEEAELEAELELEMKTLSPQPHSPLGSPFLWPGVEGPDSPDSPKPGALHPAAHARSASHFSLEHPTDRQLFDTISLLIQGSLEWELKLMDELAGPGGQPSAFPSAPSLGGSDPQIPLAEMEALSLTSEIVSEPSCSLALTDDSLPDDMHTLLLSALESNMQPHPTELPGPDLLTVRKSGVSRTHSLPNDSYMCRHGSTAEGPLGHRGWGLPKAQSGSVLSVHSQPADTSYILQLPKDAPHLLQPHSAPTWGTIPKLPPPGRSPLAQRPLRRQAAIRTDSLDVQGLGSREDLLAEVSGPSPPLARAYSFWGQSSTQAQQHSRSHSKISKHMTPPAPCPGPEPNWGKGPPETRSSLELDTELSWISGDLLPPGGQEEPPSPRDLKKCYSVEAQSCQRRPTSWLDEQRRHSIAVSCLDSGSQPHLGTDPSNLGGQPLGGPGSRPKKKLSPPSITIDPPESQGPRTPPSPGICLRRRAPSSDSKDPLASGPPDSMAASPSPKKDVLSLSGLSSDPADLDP
Assay: T-type calcium channel block, whole cell patch clamp in HEK cells
Format: cell-based
Details: measured at 1 μM drug, mainly non-inactivated protocol
pKd: −log10 of the molar value.

{"COMPOUND": "O=C(/C=C/c1ccc(F)c(Br)c1)NC1(C(=O)NCCc2c[nH]c3ccc(F)cc23)CCCCC1", "TEST TARGET": "human α1G T-type channels (Homo sapiens)", "pKd": 6.92}
{"COMPOUND": "CN1CCC(NC(=O)/C=C/c2ccc(F)cc2)(C(=O)Nc2cc(C(F)(F)F)cc(C(F)(F)F)c2)CC1", "TEST TARGET": "human α1G T-type channels (Homo sapiens)", "pKd": 6.66}
{"COMPOUND": "O=C(/C=C/c1ccc(F)c(F)c1)NC1(C(=O)NCCc2c[nH]c3ccc(F)cc23)CCNCC1", "TEST TARGET": "human α1G T-type channels (Homo sapiens)", "pKd": 6.89}
{"COMPOUND": "O=C(/C=C/c1ccc(F)cc1)NC1(C(=O)Nc2ccccc2C(F)(F)F)CCNCC1", "TEST TARGET": "human α1G T-type channels (Homo sapiens)", "pKd": 4.84}
{"COMPOUND": "O=C(/C=C/c1ccc(F)c(Br)c1)NC1(C(=O)NCCc2c[nH]c3ccc(F)cc23)CCCC1", "TEST TARGET": "human α1G T-type channels (Homo sapiens)", "pKd": 6.85}
{"COMPOUND": "COCCN1CCC(NC(=O)/C=C/c2ccc(F)cc2)(C(=O)Nc2cc(C(F)(F)F)cc(C(F)(F)F)c2)CC1", "TEST TARGET": "human α1G T-type channels (Homo sapiens)", "pKd": 6.89}
{"COMPOUND": "NCC(=O)N1CCC(NC(=O)/C=C/c2ccc(F)cc2)(C(=O)Nc2cc(C(F)(F)F)cc(C(F)(F)F)c2)CC1", "TEST TARGET": "human α1G T-type channels (Homo sapiens)", "pKd": 7.05}
{"COMPOUND": "CC(C)(NC(=O)/C=C/c1ccc(F)c(Br)c1)C(=O)NCCc1c[nH]c2ccc(F)cc12", "TEST TARGET": "human α1G T-type channels (Homo sapiens)", "pKd": 6.44}
{"COMPOUND": "O=C(/C=C/c1ccc(F)c(Br)c1)NC1(C(=O)NCCc2c[nH]c3ccc(F)cc23)CC1", "TEST TARGET": "human α1G T-type channels (Homo sapiens)", "pKd": 6.54}
{"COMPOUND": "O=C(/C=C/c1ccc(F)cc1)NC1(C(=O)Nc2cc(C(F)(F)F)cc(C(F)(F)F)c2)CCN(C2CCOCC2)CC1", "TEST TARGET": "human α1G T-type channels (Homo sapiens)", "pKd": 6.68}
{"COMPOUND": "NC(=O)CN1CCC(NC(=O)/C=C/c2ccc(F)cc2)(C(=O)Nc2cc(C(F)(F)F)cc(C(F)(F)F)c2)CC1", "TEST TARGET": "human α1G T-type channels (Homo sapiens)", "pKd": 6.55}
{"COMPOUND": "O=C(NCCc1c[nH]c2ccc(F)cc12)C1CCCN1C(=O)/C=C/c1ccc(F)c(Br)c1 (stereo in doubt)", "TEST TARGET": "human α1G T-type channels (Homo sapiens)", "pKd": 5.87}
{"COMPOUND": "CN1CCC(NC(=O)/C=C/c2ccc(F)c(Br)c2)(C(=O)NCCc2c[nH]c3ccc(F)cc23)CC1", "TEST TARGET": "human α1G T-type channels (Homo sapiens)", "pKd": 7.00}
{"COMPOUND": "CC(=O)N1CCC(NC(=O)/C=C/c2ccc(F)c(Br)c2)(C(=O)NCCc2c[nH]c3ccc(F)cc23)CC1", "TEST TARGET": "human α1G T-type channels (Homo sapiens)", "pKd": 5.58}
{"COMPOUND": "COCCC(=O)N1CCC(NC(=O)/C=C/c2ccc(F)c(Br)c2)(C(=O)NCCc2c[nH]c3ccc(F)cc23)CC1", "TEST TARGET": "human α1G T-type channels (Homo sapiens)", "pKd": 5.27}
{"COMPOUND": "COCCOC1CCC(NC(=O)/C=C/c2ccc(F)cc2)(C(=O)Nc2cc(C(F)(F)F)cc(C(F)(F)F)c2)CC1 (centres unmarked)", "TEST TARGET": "human α1G T-type channels (Homo sapiens)", "pKd": 6.00}
{"COMPOUND": "O=C(/C=C/c1ccc(F)c(Br)c1)NC1(C(=O)NCCc2c[nH]c3ccccc23)CCNCC1", "TEST TARGET": "human α1G T-type channels (Homo sapiens)", "pKd": 7.52}
{"COMPOUND": "CN(CCc1c[nH]c2ccc(F)cc12)C(=O)C1(NC(=O)/C=C/c2ccc(F)cc2)CCN(CC(N)=O)CC1", "TEST TARGET": "human α1G T-type channels (Homo sapiens)", "pKd": 5.59}
{"COMPOUND": "CC(C)(O)C(=O)N1CCC(NC(=O)/C=C/c2ccc(F)cc2)(C(=O)Nc2cc(C(F)(F)F)cc(C(F)(F)F)c2)CC1", "TEST TARGET": "human α1G T-type channels (Homo sapiens)", "pKd": 5.79}
{"COMPOUND": "CN(CCc1c[nH]c2ccc(F)cc12)C(=O)C1(NC(=O)/C=C/c2ccc(F)cc2)CCNCC1", "TEST TARGET": "human α1G T-type channels (Homo sapiens)", "pKd": 6.24}
{"COMPOUND": "Cc1cc(/C=C/C(=O)NC2(C(=O)Nc3cc(C(F)(F)F)cc(C(F)(F)F)c3)CCN(C)CC2)ccc1F", "TEST TARGET": "human α1G T-type channels (Homo sapiens)", "pKd": 7.10}
{"COMPOUND": "CCNC(=O)N1CCC(NC(=O)/C=C/c2ccc(F)c(Br)c2)(C(=O)NCCc2c[nH]c3ccc(F)cc23)CC1", "TEST TARGET": "human α1G T-type channels (Homo sapiens)", "pKd": 6.26}
{"COMPOUND": "O=C(/C=C/c1ccc(F)cc1)NC1(C(=O)Nc2cc(C(F)(F)F)cc(C(F)(F)F)c2)CCN(c2ncccn2)CC1", "TEST TARGET": "human α1G T-type channels (Homo sapiens)", "pKd": 6.80}
